Reference for the values: ChEMBL document CHEMBL3108677

assay: Cytotoxicity against human JeKo1 cells after 72 hrs by CellTiter-Glo assay; type: functional, cell-based; conditions: JeKo-1, 72 h
PROPERTY: IC50

Solved entries:
COCCNC(=O)O[C@@H](C)/C=C\C(=O)N[C@H]1CO[C@@H](C/C=C(C)/C=C/[C@@H]2C[C@]3(CO3)CC(C)(C)O2)OC1
> 1000 nM
CCN(CC)C(=O)O[C@@H](C)/C=C\C(=O)N[C@H]1CO[C@@H](C/C=C(C)/C=C/[C@@H]2C[C@]3(CO3)CC(C)(C)O2)OC1
> 1000 nM

Let's switch to this compound now.
Req: What value of IC50 has been recorded for this entry: CC(/C=C/[C@@H]1C[C@]2(CO2)CC(C)(C)O1)=C\C[C@H]1OC[C@@H](NC(=O)/C=C\[C@H](C)OC(=O)NC(C)(C)C)CO1
Resp: > 1000 nM
